EXPERIMENT_DESCRIPTION: Intravenous and intraduodenal bioavailability of zanamivir from three formulations (Example 5)
ASSAY_SETUP: male, Sprague-Dawley, rat, in vivo, 1.5 mg/animal, Plasma concentration, ID 1.5 mg/animal, PBS 50 µL; 0.25 hr; mean
OBSERVABLE: concentration at 0.25 hr (ng/mL)

* CC(=O)NC1C(NC(=N)N)C=C(C(=O)O)OC1C(O)C(O)CO (stereo not shown) | 96

---

EXPERIMENT_DESCRIPTION: Intravenous and intraduodenal bioavailability of zanamivir from three formulations (Example 5)
ASSAY_SETUP: male, Sprague-Dawley, rat, in vivo, 1.5 mg, tmax, ID 1.5 mg/animal, PBS 50 µL; mean
OBSERVABLE: Tmax (min)

- CC(=O)NC1C(NC(=N)N)C=C(C(=O)O)OC1C(O)C(O)CO (stereo not shown): 30
